Reference source: paper PMC3477848

# assayed_system: T1, Dpo4 (SsoDpo4, Y-family DNA polymerase) (Sulfolobus solfataricus, UniProt Q97W02 1-352)
# T1 sequence: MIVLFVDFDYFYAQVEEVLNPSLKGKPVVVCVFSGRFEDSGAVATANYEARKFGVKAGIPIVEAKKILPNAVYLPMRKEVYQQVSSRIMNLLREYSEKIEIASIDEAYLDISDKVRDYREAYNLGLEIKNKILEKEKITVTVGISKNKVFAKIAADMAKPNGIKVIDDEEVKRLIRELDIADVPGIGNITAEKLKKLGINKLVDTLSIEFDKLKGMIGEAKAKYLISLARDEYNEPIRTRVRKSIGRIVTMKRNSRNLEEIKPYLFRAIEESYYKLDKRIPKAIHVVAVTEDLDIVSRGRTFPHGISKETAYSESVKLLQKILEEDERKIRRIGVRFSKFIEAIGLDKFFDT
# method: fluorescence anisotropy
reported_endpoint: pKd
Formally, pKd is defined as -log10 of the concentration c, with c in mol/L.

Input: Consider the binder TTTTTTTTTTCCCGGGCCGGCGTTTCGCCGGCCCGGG (structured_DNA) [37-nt hairpin primer-template, 5'-Cy3] and give its measured pKd.
Output: 6.35
